Protocol Details: Selectivity ratio, ratio of IC50 for cytotoxicity against human SH-SY5Y cells to MIC80 for antifungal activity against Candida albicans CPCC 400616
Type: toxicity, cell-based
Readout Kind: selectivity ratio

For [2H]C([2H])([2H])N(Cc1ccc(-c2ccc(OC(F)(F)F)cc2)cc1)[C@H](C)[C@](O)(Cn1cncn1)c1ccc(F)cc1F , what is its reported selectivity ratio?
> 100

###

# MIC80 per record follows
Test system: Candida parapsilosis
Protocol Details: Antifungal activity against Candida parapsilosis GIM 2.190 assessed as inhibition of visible growth
Assay type: functional
Conditions: Lodderomyces parapsilosis
Quick reminder: number only, in µg/mL, skip the unit.

Record excerpt, results attached:
Recorded MIC80 of CN(Cc1cnc(-c2ccc(OC(F)(F)F)cc2)s1)CC(O)(Cn1cncn1)c1ccc(F)cc1F (centres undefined) , please.
0.05

# iterate: CN(Cc1nc(-c2ccc(OC(F)(F)F)cc2)cs1)CC(O)(Cn1cncn1)c1ccc(F)cc1F (centres undefined)
0.025

Also check [2H]C([2H])([2H])N(Cc1ccc(-c2ccc(Cl)c(F)c2)nc1)[C@H](C)[C@](O)(Cn1cncn1)c1ccc(F)cc1F
0.006

Pending compound:
So what's the measured MIC80 for this one? [2H]C([2H])([2H])N(Cc1ccc(-c2ccc(Cl)cc2)cc1F)[C@H](C)[C@](O)(Cn1cncn1)c1ccc(F)cc1F
0.006

###

Reported MIC80 values for a set of compounds
Test system: Candida parapsilosis
Protocol Details: Antifungal activity against Candida parapsilosis GIM 2.190 assessed as inhibition of visible growth
Type: functional
Conditions: Lodderomyces parapsilosis

Value wanted: MIC80 (Candida parapsilosis) of entry CN(Cc1ccc(-c2ccc(Cl)cc2)nc1)CC(O)(Cn1cncn1)c1ccc(F)cc1F (stereo not drawn)
6 ng/mL

Now this one: OC(CN(Cc1ccc(-c2ccc(Cl)cc2)cc1)C1CC1)(Cn1cncn1)c1ccc(F)cc1F (stereo not drawn)
> 3200 ng/mL

Okay, and OC(Cn1cncn1)(Cn1cncn1)c1ccc(F)cc1F ?
1000 ng/mL

How about this compound: O[C@@](Cn1cnnn1)(c1ccc(F)cc1F)C(F)(F)c1ccc(-c2ccc(OCC(F)(F)F)cc2)cn1
6 ng/mL

Continuing:
Checklist item: MIC80 tested on Candida parapsilosis, entry CN(Cc1nc(-c2ccc(C(F)(F)F)cc2)cs1)CC(O)(Cn1cncn1)c1ccc(F)cc1F (stereo not drawn) , value?
12 ng/mL

Record: [2H]C([2H])([2H])N(Cc1ccc(-c2ccc(OC(F)(F)F)cc2)cc1F)[C@H](C)[C@](O)(Cn1cncn1)c1ccc(F)cc1F
12 ng/mL

Similarly, CN(Cc1ccc(-c2ccc(Cl)cc2)cc1)CC(O)(Cn1cncn1)c1ccc(F)cc1F (stereo not drawn) ?
6 ng/mL

Another compound: [2H]C([2H])([2H])N(Cc1ccc(-c2ccc(Cl)cc2F)nc1)[C@H](C)[C@](O)(Cn1cncn1)c1ccc(F)cc1F
6 ng/mL

###

Protocol Details: Metabolic stability in human liver microsomes assessed as half life by LC-MS/MS analysis
Assay type: ADME, Microsome
Conditions: liver microsomes
// reported log10 of half-life for each item listed
Log10 applied to half-life; unit prior to transform: min.

Which value of log10 of half-life has been reported for CN(Cc1ccc(N2CCN(Cc3ccc(F)cc3Br)CC2)cc1)CC(O)(Cn1cncn1)c1ccc(F)cc1F (stereo not given) in the records?
0.46

What would you report for [2H]C([2H])([2H])N(Cc1ccc(-c2ccc(OC(F)(F)F)cc2)cc1)[C@H](C)[C@](O)(Cn1cncn1)c1ccc(F)cc1F ?
1.60

Please give the result for [2H]C([2H])([2H])N(Cc1ccc(-c2ccc(Cl)c(F)c2)cc1)[C@H](C)[C@](O)(Cn1cncn1)c1ccc(F)cc1F too.
1.15

Next:
Form field: reported log10 of half-life of [2H]C([2H])([2H])N(Cc1ccc(-c2ccc(Cl)cc2)nc1)[C@H](C)[C@](O)(Cn1cncn1)c1ccc(F)cc1F
0.36

Now consider [2H]C([2H])([2H])N(Cc1ccc(-c2ccc(C(F)(F)F)cc2)cc1)[C@H](C)[C@](O)(Cn1cncn1)c1ccc(F)cc1F and answer again.
1.55

###

Test system: Cryptococcus neoformans
Protocol Details: Antifungal activity against Cryptococcus neoformans CGMCC 2.3161 assessed as inhibition of visible growth
Type: functional
Some compounds, each annotated with its measured MIC80.
Please give the number followed by its unit.

Field: example entries. Status: answers known.
Suppose we examine the compound CN(Cc1ccc(-c2ccc(F)cc2)cn1)CC(O)(Cn1cncn1)c1ccc(F)cc1F (stereo not given) ; what MIC80 value has been reported?
0.1 µg/mL

Thanks! And [2H]C([2H])([2H])N(Cc1ccc(-c2ccc(Cl)cc2)cn1)[C@H](C)[C@](O)(Cn1cncn1)c1ccc(F)cc1F ?
0.012 µg/mL

Next entry: CN(Cc1ccc(-c2ccc(C(F)(F)F)cc2)cc1)CC(O)(Cn1cncn1)c1ccc(F)cc1F (stereo not given)
0.05 µg/mL

[2H]C([2H])([2H])N(Cc1ccc(-c2ccc(C(F)(F)F)cc2)cc1F)[C@H](C)[C@](O)(Cn1cncn1)c1ccc(F)cc1F ?
0.025 µg/mL

Now this one: CN(Cc1ccc(-c2ccc(C#N)cc2)cn1)CC(O)(Cn1cncn1)c1ccc(F)cc1F (stereo not given)
0.8 µg/mL

Turning now to a further compound:
Form field: reported MIC80 of CN(Cc1ccc(-c2ccccc2Cl)cn1)CC(O)(Cn1cncn1)c1ccc(F)cc1F (stereo not given)
0.1 µg/mL

###

Tested Target: Cytochrome P450 2C9 (Homo sapiens)
Sequence (P11712 whole entry): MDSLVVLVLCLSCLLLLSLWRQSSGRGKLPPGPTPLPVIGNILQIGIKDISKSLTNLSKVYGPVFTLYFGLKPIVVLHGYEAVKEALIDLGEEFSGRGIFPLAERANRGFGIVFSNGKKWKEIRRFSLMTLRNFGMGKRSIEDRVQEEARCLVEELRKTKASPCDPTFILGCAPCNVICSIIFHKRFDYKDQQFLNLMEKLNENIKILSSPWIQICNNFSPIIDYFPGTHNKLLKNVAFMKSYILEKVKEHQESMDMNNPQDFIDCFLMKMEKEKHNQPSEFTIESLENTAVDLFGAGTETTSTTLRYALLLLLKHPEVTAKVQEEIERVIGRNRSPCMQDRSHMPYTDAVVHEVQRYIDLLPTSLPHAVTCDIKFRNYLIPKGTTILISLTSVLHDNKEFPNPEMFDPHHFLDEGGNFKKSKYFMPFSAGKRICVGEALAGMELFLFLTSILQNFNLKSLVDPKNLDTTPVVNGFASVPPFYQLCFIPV
Readout Kind: pIC50
# pIC50 = -log10(concentration in molar units)

Look up pIC50 for this molecule: [2H]C([2H])([2H])N(Cc1ccc(-c2ccc(OC(F)(F)F)cc2)cc1)[C@H](C)[C@](O)(Cn1cncn1)c1ccc(F)cc1F
5.75

###

Tested Target: Cytochrome P450 1A2 (Homo sapiens, UniProt P05177)
Sequence (P05177 whole entry): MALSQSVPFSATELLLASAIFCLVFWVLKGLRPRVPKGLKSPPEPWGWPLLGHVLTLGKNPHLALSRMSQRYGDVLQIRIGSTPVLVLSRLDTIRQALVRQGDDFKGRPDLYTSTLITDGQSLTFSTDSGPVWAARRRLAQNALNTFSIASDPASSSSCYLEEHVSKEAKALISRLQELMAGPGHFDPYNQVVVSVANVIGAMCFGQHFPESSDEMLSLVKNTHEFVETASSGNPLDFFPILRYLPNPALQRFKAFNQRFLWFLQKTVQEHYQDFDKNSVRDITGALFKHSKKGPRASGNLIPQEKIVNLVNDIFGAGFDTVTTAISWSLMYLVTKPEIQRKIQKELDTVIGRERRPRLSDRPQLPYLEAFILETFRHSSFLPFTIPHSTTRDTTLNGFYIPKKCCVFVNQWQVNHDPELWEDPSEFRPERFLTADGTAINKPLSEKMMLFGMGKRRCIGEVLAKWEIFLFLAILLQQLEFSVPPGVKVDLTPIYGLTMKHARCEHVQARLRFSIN
pIC50: −log10 of the molar value.
Readout Kind: pIC50

Could you tell me which pIC50 is on file for [2H]C([2H])([2H])N(Cc1ccc(-c2ccc(OC(F)(F)F)cc2)cc1)[C@H](C)[C@](O)(Cn1cncn1)c1ccc(F)cc1F ?
< 5.00

###

# key: entry, value: IC50 at 72 h
Protocol Details: Cytotoxicity against human HUVEC cells measured after 72 hrs by MTT assay
Assay type: toxicity, cell-based
Numeric answer only, unit µM assumed.

Fill in: IC50 at 72 h of [2H]C([2H])([2H])N(Cc1ccc(-c2ccc(OC(F)(F)F)cc2)cc1)[C@H](C)[C@](O)(Cn1cncn1)c1ccc(F)cc1F is ___
23.5

What would you report for CN(Cc1ccc(N2CCN(Cc3ccc(F)cc3Br)CC2)cc1)CC(O)(Cn1cncn1)c1ccc(F)cc1F (stereo not drawn) ?
21

###

MIC80 values, listed per item
Test system: Candida parapsilosis
Protocol Details: Antifungal activity against Candida parapsilosis GIM 2.190 assessed as inhibition of visible growth
Type: functional
Conditions: Lodderomyces parapsilosis
Quick reminder: number only, in ng/mL, skip the unit.

Use these answered entries as a reference point.
Please give the measured MIC80 for this compound: CN(Cc1ccc(-c2ccc(-c3ccccc3)cc2)cn1)CC(O)(Cn1cncn1)c1ccc(F)cc1F (centres undefined)
12

Request: CN(Cc1ccc(-c2ccc(OC(F)(F)F)cc2)cc1)CC(O)(Cn1cncn1)c1ccc(F)cc1F (centres undefined)
6

Also CN(Cc1ccc(-c2ccc(OCC(F)(F)F)cc2)cn1)CC(O)(Cn1cncn1)c1ccc(F)cc1F (centres undefined) , if possible.
12

Similarly, CN(Cc1ccc(-c2ccc(OC(F)(F)F)cc2)o1)CC(O)(Cn1cncn1)c1ccc(F)cc1F (centres undefined) ?
50

Further, for CN(Cc1ccc(-c2ccc(Cl)c(F)c2)cc1)CC(O)(Cn1cncn1)c1ccc(F)cc1F (centres undefined) ?
6

Entry to check: CN(Cc1ccc(-c2ccc(F)cc2)cn1)CC(O)(Cn1cncn1)c1ccc(F)cc1F (centres undefined)
12

Next:
Requested field: MIC80. Item: CN(Cc1ccc(-c2ccc(C(F)(F)F)cc2)nc1)CC(O)(Cn1cncn1)c1ccc(F)cc1F (centres undefined)
6

Queued: CN(Cc1ccc(-c2ccc(Cl)cc2)cn1)CC(O)(Cn1cncn1)c1ccc(F)cc1F (centres undefined)
6

# iterate: [2H]C([2H])([2H])N(Cc1ccc(-c2ccc(Cl)cc2)nc1)[C@H](C)[C@](O)(Cn1cncn1)c1ccc(F)cc1F
6

###

System: Candida parapsilosis
Protocol Details: Antifungal activity against Candida parapsilosis GIM 2.190 assessed as inhibition of visible growth
Assay type: functional
Conditions: Lodderomyces parapsilosis
Readout Kind: MIC80 (µg/mL)
API: value field is a number in µg/mL; no unit string.

What value of MIC80 has been recorded for this entry: CN(Cc1ccc(-c2ccc(Cl)cc2)s1)CC(O)(Cn1cncn1)c1ccc(F)cc1F (stereo not drawn)
0.006

Entry [2H]C([2H])([2H])N(Cc1ccc(-c2ccc(Cl)cc2)c(F)c1)[C@H](C)[C@](O)(Cn1cncn1)c1ccc(F)cc1F please
0.006

Lookup CN(Cc1ccc(-c2cccc(Cl)c2)cn1)CC(O)(Cn1cncn1)c1ccc(F)cc1F (stereo not drawn)
0.012

Same read-out for CN(Cc1ccc(-c2ccccc2Cl)cn1)CC(O)(Cn1cncn1)c1ccc(F)cc1F (stereo not drawn) ?
0.025

Subsequent entry: CN(Cc1ccc(-c2ccc(OC(F)(F)F)cc2)cn1)CC(O)(Cn1cncn1)c1ccc(F)cc1F (stereo not drawn)
0.006

Here is the next compound: CN(Cc1ccc(-c2ccc(C#N)cc2)cn1)CC(O)(Cn1cncn1)c1ccc(F)cc1F (stereo not drawn)
0.1

Continuing:
# MIC80 lookup, item CC(C)c1ccc(-c2ccc(CN(C)CC(O)(Cn3cncn3)c3ccc(F)cc3F)nc2)cc1 (stereo not drawn)
0.012

[2H]C([2H])([2H])N(Cc1ccc(-c2ccc(Cl)cc2F)cc1F)[C@H](C)[C@](O)(Cn1cncn1)c1ccc(F)cc1F ?
0.012

// repeat for CN(Cc1ccc(-c2ccc(C(C)(C)C)cc2)cn1)CC(O)(Cn1cncn1)c1ccc(F)cc1F (stereo not drawn) and report
0.012

Queued: CCc1ccc(-c2ccc(CN(C)CC(O)(Cn3cncn3)c3ccc(F)cc3F)nc2)cc1 (stereo not drawn)
0.012

Repeat with CN(Cc1cnc(-c2ccc(C(F)(F)F)cc2)s1)CC(O)(Cn1cncn1)c1ccc(F)cc1F (stereo not drawn)
0.05

Then this compound: CN(Cc1cnc(-c2ccc(Cl)cc2)s1)CC(O)(Cn1cncn1)c1ccc(F)cc1F (stereo not drawn)
0.4

And for [2H]C([2H])([2H])N(Cc1ccc(-c2ccc(OC(F)(F)F)cc2)nc1)[C@H](C)[C@](O)(Cn1cncn1)c1ccc(F)cc1F ?
0.006
